# peptide microarray binding signal per entry
# experimental target: anti-H3K4me3 antibody ab8580
# test: peptide microarray binding signal (635 nm), min-max normalized on array (fraction of array maximum); higher = stronger binding
# setup conditions: peptide region: Unmod H1 variant; binder concentration: 1:10,000 dilution
measure: peptide microarray binding signal

[[record]]
binder = "SKKSVKTPKKAKK [Unmod H1 variant S K K S V K T P K K A K K]"
recorded_value = 0.000628

[[record]]
binder = "AEKNRAGSSRQSI [Unmod H1 variant A E K N R A G S S R Q S I]"
recorded_value = 0.000913

[[record]]
binder = "DSQIKLSIKRLVT [Unmod H1 variant D S Q I K L S I K R L V T]"
recorded_value = 0.00137

[[record]]
binder = "SFRLAKSDEPKKS [Unmod H1 variant S F R L A K S D E P K K S]"
recorded_value = 0.00154

